system: Hek293T; test: Primary qHTS to identify gynecologic anti-cancer compounds using libraries of approved drugs and bioactive compounds (AID 1345084); settings: Gynecologic cancer cell panel viability, ATPlite luminescence, 48 h, control line for the selectivity index; series mostly up to 57.5 µM; further: nearly all actives have a fitted effect of over 55% in size
Records with an inconclusive call do not appear. Active and inactive are the calls of the source. The call rests on the fitted dose curve; in most records, active means well fitted cell-killing curve with a large enough effect; inconclusive means small, poorly fitted or top-dose-only effect, or effect the other way; inactive means flat fitted curve, though single readings scatter.
// one of label 1 for active, label 0 for inactive, no free text

Solved entries:
{"structure": "CCOC(=O)[C@H](CCc1ccccc1)N[C@@H](C)C(=O)N(CC(=O)O)C1Cc2ccccc2C1", "tgt": "Hek293T", "category": "label 0"}
{"structure": "CCCc1c2oc(C(=O)O)cc(=O)c2cc2c(=O)cc(C(=O)O)n(CC)c12", "tgt": "Hek293T", "category": "label 0"}
{"structure": "Nc1ccc2cc3ccc(N)cc3nc2c1", "tgt": "Hek293T", "category": "label 1"}

Which result was noted for this compound in the test: `CCN(CC)CCN`
label 0

Outcome? `O=C(O)CCCC[C@@H]1SC[C@@H]2NC(=O)N[C@@H]21`
label 0

What call does the record list for `C[C@@H]1C[C@H]2[C@@H]3CCC4=CC(=O)C=C[C@]4(C)[C@@]3(F)[C@@H](O)C[C@]2(C)[C@@]1(O)C(=O)COC(=O)c1ccncc1` ?
label 0

Tell me the recorded outcome of this test for `COc1ccc2c(c1)c(CC(=O)OC/C=C(\C)CC/C=C(\C)CCC=C(C)C)c(C)n2C(=O)c1ccc(Cl)cc1` .
label 0

Give the logged outcome of this assay for the following compound: `C=CC[N+]1([C@H]2C[C@H]3[C@@H]4CC[C@H]5C[C@H](OC(C)=O)[C@@H](N6CCCCC6)C[C@]5(C)[C@H]4CC[C@]3(C)[C@H]2OC(=O)CC)CCCCC1`
label 0

Assay outcome for `CCOc1ncc(F)c(=O)[nH]1` : what was it?
label 0
